measurement_name: melting point

{"columns": ["compound", "melting point"],
 "data": [
  ["N#Cc1cccc(CN2C(=O)c3ccccc3C2=O)n1", "205 °C"],
  ["CC(C)C#Cc1c(C#N)nn(-c2c(Cl)cc(C(F)(F)F)cc2Cl)c1N", "210 to 212 °C"],
  ["CCCCCCCCCCc1ccc2cc(O)c(SC)cc2c1", "65.5 to 66 °C"]
]}

Requested field: melting point. Item: CC(C)(C)OC(=O)N1CCOC[C@H]1CC(=O)O
82 °C

Also need COc1cc2c3c(nc4ccc(Cl)cc4c3c1)-c1ccc(Cl)cc1N2C , thanks.
287 to 289 °C

Now give it for CCCCCCCCSc1ccc(CC(CO)(CO)NC(C)=O)cc1 too.
76 to 78 °C

Also check N#CCCNC(=O)c1ccnc(-c2cccc3nn(Cc4cccc(C(F)(F)F)c4)cc23)c1
147 to 148 °C

And for CC1CC(=O)NN=C1c1ccc2c(c1)C(C)(C)CC(=O)N2C (stereo unspecified) ?
238 to 241 °C

Thanks! And CN1CCN(c2ccccc2C=C2CCCN(c3ccc(Cl)c(Cl)c3)C2=O)CC1 ?
138 to 140 °C

What do we get for C#CCOc1nc(-n2ncc(C(=O)OCC)c2N)c(C(F)(F)F)cc1Cl ?
118 to 119 °C

Another compound to look at: O=C(O)N1CCN(C(=O)c2cccs2)CC1
76 °C

Also, CCc1cc(C=O)c2ccc3cccc4ccc1c2c34 please.
134 to 136 °C

What would you report for Cc1cccc(C2(CNC(=O)Nc3c(C(C)C)cccc3C(C)C)CCC2)c1 ?
148 to 151 °C

Another compound to check: CN(C)C=Nc1sc(C=O)c(Cl)c1C#N
186 °C

Would you mind doing CCCCCS(=O)(=O)NC(=O)/C=C/c1cc(OCCOC)nn1Cc1ccc(Cl)cc1Cl as well?
82 to 85 °C

Could you do the same for COc1cc2[nH]ccc2cc1Br , please?
110 to 111 °C

###

measurement_name: melting point

Sample answers from the record:
{"columns": ["compound", "measurement_name", "endpoint_result"],
 "data": [
  ["COC(=O)c1cc(-c2ccc(OC)cc2)nn(CCC#N)c1=O", "melting point", "141 to 143 °C"],
  ["Cc1ccc(S(=O)(=O)NCCNC(C)C)cc1", "melting point", "76 to 78 °C"],
  ["Cc1cc(Nc2ccnc(Nc3ccc(S(=O)(=O)N(C)C4CCN(Cc5nccs5)CC4)cc3)n2)ccc1F", "melting point", "176 to 177 °C"],
  ["C=CCn1cc(C(=O)O)c(=O)c2cc(F)c(F)c(F)c21", "melting point", "194 to 197 °C"],
  ["Cc1nn(-c2cc(C(F)(F)F)ccc2Cl)cc1C(=O)O", "melting point", "206 to 208 °C"]
]}

Returns the measured melting point for the input compound. Input: COc1ccc(C(=O)Nc2ccc(F)cc2)cc1N
164 to 167 °C

Next: CC12C=CC(C1)C(C(N)=O)C2(C(N)=O)c1cccc(Br)c1 (stereo not given)
111 to 113 °C

Now the same for Cc1c(-c2ccccc2)nn(N)c1OCCN1CCCC1
109 °C

Would you mind doing CCOP(=O)(/C=C/c1nc(-c2ccccc2)oc1COc1ccc(OCc2nc(-c3ccccc3)oc2C)cc1)OCC as well?
124 to 125 °C

Record: CCOC(=O)c1cccn2cc(C(C)(C)C)nc12
72 to 74 °C

How about O=C(O)Cc1cccc2c(-c3ccc(Br)cc3)nccc12 ?
230 to 232 °C

Okay, and COc1ccc(/C=C/C(=O)C#CC(=O)O)cc1 ?
98 to 100 °C

Query CCc1c(C)c(=O)oc2cc(-c3nnc(C)s3)cc(OC)c12 next
135 to 138 °C

Can you check N=C(N)Nc1nc(-c2nc(N)n[nH]2)cs1 next?
173 to 175 °C

# iterate: O=C(O)CN1CCOCC1
169 to 170 °C

###

measurement_name: melting point

Example entries begin here.
{"columns": ["compound", "melting point"],
 "data": [
  ["FC(F)(F)c1ccccc1-c1cccc(C=NNC(=S)NN2CCCC2)n1", "142 to 146 °C"],
  ["CCn1c(=O)c2[nH]c(/C=C/c3ccc(F)c(F)c3)nc2n(CC)c1=O", "> 300 °C"],
  ["CCOC(=O)N(C)c1c(OC)cc(Cc2cnc(N)nc2N)cc1OC", "187 to 188 °C"],
  ["COC(=O)COc1c(CCC(C)C)c(OC)cc(OC)c1C(=O)CCc1ccc(O)c(OC)c1", "89 to 90 °C"],
  ["COc1ccc(Nc2ccn(Cc3ccccc3)n2)cc1", "68 to 71 °C"]
]}

Tell me the measured melting point of Cn1c(=O)n(COc2ccc(Cl)cc2)c(=O)c2c1ncn2Cc1ccccc1 , please.
96 °C

Next record, please: CC(C#N)c1cccc(C(=O)c2cc3sccc3s2)c1 (stereo not given)
75 °C

Could you do the same for CC(=O)Nc1ccc(Sc2c(-c3ccc(S(C)(=O)=O)cc3)cnn(CC(F)(F)F)c2=O)cc1 , please?
191 to 193 °C

Now give it for CCC1(c2cccc(OC)c2)CCCC(=O)N(C)C1 (stereo not given) too.
69 to 71 °C

Repeat with Cc1cc(C(=O)NN)ccc1Br
164 to 166 °C

###

melting point: recorded values

For orientation, consider the following solved cases.
{"columns": ["molecule", "melting point"],
 "data": [
  ["CCCCOCCOc1ccc(-c2ccc(N3CCC(CC(=O)OCC)C3)c(C=C(C)C(=O)O)c2)cc1 (stereo unspecified)", "116 °C"],
  ["CCCc1nc(C=O)c[nH]1", "104 to 106 °C"],
  ["CC(=O)Nc1ccc(C=O)c(C)c1C#N", "170 to 173 °C"],
  ["CCOC(=O)c1c(C)nc2c(c1N)c1ccccc1n2Cc1ccccc1", "139 to 140 °C"],
  ["COc1ccc(S(=O)(=O)N(CC(=O)O)CC(=O)O)cc1", "177 to 178 °C"]
]}

Entry under review: FC(F)(F)c1cccc(OC(c2ccc(Cl)cc2)c2ncco2)c1 (stereo unspecified) . Reported melting point?
66 to 67 °C

###

measurement_name: melting point (°C)
# unit: °C | format: bare number

{"columns": ["compound", "endpoint_result"],
 "data": [
  ["Cc1ccc2cc(NS(=O)(=O)c3cccc(Cl)c3C)ccc2n1", 178]
]}

Item under review: O=C(c1ccccc1)c1cc([N+](=O)[O-])ccc1NC1CCCC1 . Reported melting point?
95

What would you report for Oc1ccc([C@@H]2CCc3cc(O)ccc3[C@@H]2Cn2ccnc2)cc1 (relative stereo) ?
238

###

Catalogue of melting point readings, one per entry.

Item under review: CC(C)(C)COc1c(-c2ccc(S(N)(=O)=O)c(F)c2)cnn(CC(F)(F)F)c1=O . Reported melting point?
144 to 145 °C

Next compound up: N#CC=Cc1ccc2c(c1)-c1c3c(c4c([nH]c5ccccc54)c1C2)C(=O)NC3
> 330 °C

Another compound: Oc1cc(O)c2c(c1)Oc1ccc(Br)cc1CC2
174 to 176 °C

Cool, now Nc1sc2c(c1C(=O)c1ccc(Cl)c3ccccc13)CCC2
258 to 260 °C

Follow-up item: CCCCCC(=O)Nc1nnc(C)s1
203 °C

How about this compound: O=C(O)c1cc([N+](=O)[O-])cc([N+](=O)[O-])c1Nc1cc(-c2ccccc2)ccc1O
215 to 217 °C

###

measurement_name: melting point

Recorded results for 3 compounds are shown here.
{"columns": ["test_smiles", "melting point"],
 "data": [
  ["CC(C)CN1CCN(CCc2ccc(-c3cccc(N)n3)cc2)CC1", "85 to 88 °C"],
  ["COc1ccc(CCNC(=O)N(OC(C)=O)C(C)(C)C)cc1OC", "123 to 125 °C"],
  ["Cn1cc2c(=O)n(-c3ccc(Cl)cc3)nc-2c2ccccc21", "322 to 323 °C"]
]}

Given CC1(C)CC(=NO)c2cc(-c3ccc(Br)cc3)ccc2O1 , state its recorded melting point.
166 to 170 °C

Please give the result for CCOc1cc2c(c3c1OC(C)(C)C3)C(c1cccc(NC(N)=O)c1)=NC(C)(C)C2 too.
202 to 205 °C

###

Below, each entry is listed with its recorded melting point.
The answer is to be given in °C; state only the numeric part.

{"columns": ["compound", "unit_abbreviation", "melting point"],
 "data": [
  ["CC(O)Cn1cnc2cnc3ccccc3c21 (stereo not drawn)", "°C", 171],
  ["O=C(Cl)c1cnc2cc(OCc3ccccc3)c(OCc3ccccc3)cn2c1=O", "°C", 152],
  ["CN(Cc1cc(C(C)(C)C)c(O)c(C(C)(C)C)c1)n1ccnc1", "°C", 139]
]}

Now let's try a different one.
Need melting point, item CC(=O)c1cccc(NC(=O)NCC(=O)N(CC(=O)N2CCCc3ccccc32)c2ccccc2)c1
130
